The measurements presented in this section are drawn from ChEMBL document CHEMBL1201862.

Entries and their GI50 values follow.
tested on: SF-268; test: NCI tumour cell line growth inhibition, 48 h
Calls of active or inactive are those of the source. Rule as the data show it: active = GI50 up to about 1.1 µM and inactive = higher.

# count of solved cases: 4
{"Compound": "COc1cc2ccc1OCc1cccc(n1)COc1ccc(cc1OC)/C=N\\CCNCC/N=C\\2", "GI50": "80.9 µM (inactive)"}
{"Compound": "CC1CC/C(=C\\c2ccc(Cl)cc2)C2OC(N)=C(C#N)C(c3ccc(Cl)cc3)=C12 (stereo not given)", "GI50": "13.2 µM (inactive)"}
{"Compound": "O=C(NCCCN(CCCCN(CCCNC(=O)C(F)(F)F)Cc1ccccc1)Cc1ccccc1)C(F)(F)F", "GI50": "12.5 µM (inactive)"}
{"Compound": "O=C(O)CNc1ncc2c(n1)-c1ccccc1OC2", "GI50": "> 100 µM (inactive)"}

Here is another compound to look at.
## Task Give SF-268 GI50 for NNC(=O)CCc1ccc2ccc3ccccc3c2c1
## Result 62.2 µM (inactive)
